- system.tested: T1, G protein of RSV A/A2 (virus, ATCC Cat. No. VR-1540) (Respiratory syncytial virus A/A2, UniProt P03423 1-298)
- T1 sequence: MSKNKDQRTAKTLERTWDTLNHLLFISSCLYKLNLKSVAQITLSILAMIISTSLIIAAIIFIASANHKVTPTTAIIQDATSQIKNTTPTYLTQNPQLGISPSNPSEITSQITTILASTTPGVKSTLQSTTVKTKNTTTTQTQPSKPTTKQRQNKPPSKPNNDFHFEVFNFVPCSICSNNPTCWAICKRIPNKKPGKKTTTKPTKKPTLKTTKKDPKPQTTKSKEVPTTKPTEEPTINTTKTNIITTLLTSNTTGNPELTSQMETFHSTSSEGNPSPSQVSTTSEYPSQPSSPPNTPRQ
- measurement.description: cell-based or functional assay
measurement.type: Neutralization IC50 (plaque reduction assay, Vero cells) (µg/mL)

1. CB003.1 (antibody, V domains shown) VH: QVQLVQSGPELRKPGASVTVSCKASGYTFTTYYIHWVRQAPGGGLDWMGMINTGSGVTSYAQKFQGRVAMTRDTSTSTVFMELSSLRFEDTALYYCARMYSGSWYPFDYWGQGALVTVSS VL: EIVLTQSPGTLSLSPGERATLSCRASQNINGNYLAWYQQKPGLAPRLLIYEASSRATGIPDRFSGSGSGTDFTLTISSLEPEDFGVYYCQQYGTSPFFTFGPGTKVDIK :: 0.0315
2. CB002.1 (antibody, V domains shown, also called CB2.1) VH: QVQLQESGPRLVKPSETLSLTCTVSGGSTSSYFWNWIRQPPGKGLEWIGYIYGSGSADYNPSLKSRVTISIDTSKTQFSLKLTSVTAADTAVYYCARSGFCTNDACYRRGSWFDPWGQGTLVTVSS VL: DIQMTQSPSSLSASVGDRVTITCRASQSIDNYLNWYQQKPGKAPKLLIYAASSLQSGVPSRFSGSGSGTDFTLTVSSLHPEDFATYYCQQSYSTLTWTFGQGTKVEIK :: 0.0355
3. CB058.1 (antibody, V domains shown) VH: EVQLVESGGGLVQPGGSLRLSCVASGFTFSSYAMSWVRQAPGKGLEWVSAIRGSVDNTYYADSVKGRFTISRDNSKNTLYLQMNSLRVEDTAVYYCAKDPALYCSGETCFSDLTDWGQGTLVTVSS VL: DIQMTQSPSSLSASVGDRVTITCRASQGINNYLAWFQQKPGKAPKSLIYAASTLPSGVPSRFSGSGSGTDFTLTISSLQPEDSATYFCQHYIRYPHTFGQGTKLEIK :: 0.0144
4. CB048.3 (antibody, V domains shown) VH: QVQLVESGGGVVQPGRSLRLSCAASGFTFSNHGMHWVRQAPGKGLEWVAVISYDGNKKYYADSVKGRFTVSRDNSKNTLSLQMDSLRAEDTAIYYCAKTTFYFDDSNYYEYLDYWGQGTLVTVSS VL: DIQLTQSPSFLSASVGDRVTITCRASQGIRSYLAWYQQKPGKAPKLLIYAASTLQSGVPSRFSGGGSGTEFTLTISSLQPEDSATYYCQQLNTSPPYTFGQGTKLEIK :: 0.0167
